FYI, the data here is from patent US20180256538A1.

# Assay overview: clinical
# Condition details: both sexes, human, in vivo, po, 500 mg
Assay endpoint: Cmax
Record the result as a number with its unit.

Quick note, Cmax for `O=c1oc2cc(O)ccc2c2ccc(O)cc12` landed at 1.25 ng/mL

* * *

# Assay overview: clinical
# Condition details: both sexes, human, in vivo, po, 500 mg
Assay endpoint: AUC (ng·h/mL)
Give just the numeric value; ng·h/mL need not be written.

Quick note, AUC for `O=c1oc2cc(O)ccc2c2ccc(O)cc12` landed at 10.7

* * *

# Assay overview: clinical
# Condition details: both sexes, human, in vivo, po, 2000 mg
Assay endpoint: AUC(0-t) (ng·h/mL)
Give just the numeric value; ng·h/mL need not be written.

Quick note, AUC(0-t) for O=c1oc2cc(O)ccc2c2ccc(O)cc12 [Urolithin A] landed at 12.4

* * *

# Assay overview: clinical
# Condition details: both sexes, human, in vivo, po, 2000 mg
Assay endpoint: Cmax (ng/mL)
Give just the numeric value; ng/mL need not be written.

Quick note, Cmax for O=c1oc2cc(O)ccc2c2ccc(O)cc12 [Urolithin A] landed at 1.04

* * *

# Assay overview: clinical
# Condition details: both sexes, human, in vivo, po, 500 mg
Assay endpoint: AUC(0-t) (ng·h/mL)
Give just the numeric value; ng·h/mL need not be written.

Quick note, AUC(0-t) for `O=c1oc2cc(O)ccc2c2ccc(O)cc12` landed at 13.3
